assay: Cytotoxicity assay (Alamar Blue, 24 h) on HepG2 cells; assay type: cell-based, human; conditions: human, HepG2 cells, lower concentrations (37–100 μM)
Assay endpoint: viability at 24 h

-- ask Which viability at 24 h is listed for CN(C)c1ccc2nc3ccc(=[N+](C)C)cc-3sc2c1 [MB, methylene blue, reference compound] ?
-- reply > 50%

----------
tested on: J774.G8 cells; experiment: Cytotoxicity assay (Alamar Blue, 24 h) on J774.G8 macrophages; format: cell-based, murine; conditions: 10^5 cells/well, read-out: CC50 J744.G8
What CC50 was measured for each of the following?
Answer with a number only, understood to be in µM.

-- ask Which CC50 is listed for CCNc1cc2[s+]c3cc(NCC)c(C)cc3nc2cc1C.F[P-](F)(F)(F)(F)F.F[P-](F)(F)(F)(F)F.F[P-](F)(F)(F)(F)F.F[P-](F)(F)(F)(F)F.N#[O+].[Ru+2].c1cnc2c(c1)ccc1cccnc12.c1cnc2c(c1)ccc1cccnc12 [NMB-P, new methylene blue P] ?
-- reply 69.8

-- ask Which CC50 is listed for CCNc1cc2[s+]c3cc(NCC)c(C)cc3nc2cc1C.F[P-](F)(F)(F)(F)F.F[P-](F)(F)(F)(F)F.F[P-](F)(F)(F)(F)F.F[P-](F)(F)(F)(F)F.N#[O+].[Ru+2].c1ccc(-c2ccccn2)nc1.c1ccc(-c2ccccn2)nc1 [NMB-B, new methylene blue B] ?
-- reply 130

----------
What VIROS, Ex Vivo Amastigotes High Population was measured for each of the following?
system: ex vivo amastigote forms of L. amazonensis LTB0016 strain; assay: ROS production by flow cytometry, H2DCFDA, ex vivo amastigotes; assay type: cell-based, Leishmania amazonensis; settings: exposed to IC50 (AA 10 µM), 24 h; MT/MC
Enter the number alone.

-- ask Which VIROS, Ex Vivo Amastigotes High Population is listed for `CCNc1cc2[s+]c3cc(NCC)c(C)cc3nc2cc1C.F[P-](F)(F)(F)(F)F.F[P-](F)(F)(F)(F)F.F[P-](F)(F)(F)(F)F.F[P-](F)(F)(F)(F)F.N#[O+].[Ru+2].c1ccc(-c2ccccn2)nc1.c1ccc(-c2ccccn2)nc1` ?
-- reply 0.85

-- ask Which VIROS, Ex Vivo Amastigotes High Population is listed for `CCNc1cc2[s+]c3cc(NCC)c(C)cc3nc2cc1C.F[P-](F)(F)(F)(F)F.F[P-](F)(F)(F)(F)F.F[P-](F)(F)(F)(F)F.F[P-](F)(F)(F)(F)F.N#[O+].[Ru+2].c1cnc2c(c1)ccc1cccnc12.c1cnc2c(c1)ccc1cccnc12` ?
-- reply 0.90

-- ask Which VIROS, Ex Vivo Amastigotes High Population is listed for CCCCCC[C@H]1C(=O)O[C@H](C)[C@H](NC(=O)c2cccc(NC=O)c2O)C(=O)O[C@@H](C)[C@@H]1OC(=O)CC(C)C [AA, Antimycin A, reference compound] ?
-- reply 0.60

-- ask Which VIROS, Ex Vivo Amastigotes High Population is listed for `CCNc1cc2[s+]c3cc(NCC)c(C)cc3nc2cc1C` ?
-- reply 0.84

-- ask Which VIROS, Ex Vivo Amastigotes High Population is listed for CN(C)c1ccc2nc3ccc(=[N+](C)C)cc-3sc2c1 [MB, methylene blue, reference compound] ?
-- reply 0.90

----------
system: Leishmania amazonensis promastigote forms (PH8 strain); settings: exposed to IC50, 24–168 h
Assay endpoint: time from which proliferation was significantly (p < 0.05) reduced compared to MT

-- ask Which time from which proliferation was significantly (p < 0.05) reduced compared to MT is listed for CCNc1cc2[s+]c3cc(NCC)c(C)cc3nc2cc1C.F[P-](F)(F)(F)(F)F.F[P-](F)(F)(F)(F)F.F[P-](F)(F)(F)(F)F.F[P-](F)(F)(F)(F)F.N#[O+].[Ru+2].c1cnc2c(c1)ccc1cccnc12.c1cnc2c(c1)ccc1cccnc12 [NMB-P, new methylene blue P] ?
-- reply ≥ 96 h

-- ask Which time from which proliferation was significantly (p < 0.05) reduced compared to MT is listed for CCNc1cc2[s+]c3cc(NCC)c(C)cc3nc2cc1C.F[P-](F)(F)(F)(F)F.F[P-](F)(F)(F)(F)F.F[P-](F)(F)(F)(F)F.F[P-](F)(F)(F)(F)F.N#[O+].[Ru+2].c1ccc(-c2ccccn2)nc1.c1ccc(-c2ccccn2)nc1 [NMB-B, new methylene blue B] ?
-- reply ≥ 48 h

-- ask Which time from which proliferation was significantly (p < 0.05) reduced compared to MT is listed for CCNc1cc2[s+]c3cc(NCC)c(C)cc3nc2cc1C [NMB, new methylene blue] ?
-- reply ≥ 72 h

-- ask Which time from which proliferation was significantly (p < 0.05) reduced compared to MT is listed for CN(C)c1ccc2nc3ccc(=[N+](C)C)cc-3sc2c1 [MB, methylene blue, reference compound] ?
-- reply ≥ 24 h

----------
tested on: murine peritoneal macrophages—MPMs; assay: Cytotoxicity assay (Alamar Blue, 24 h) on murine peritoneal macrophages; assay type: cell-based, Swiss Webster mice; details: 3 × 10^5 cells/well
Assay endpoint: CC50 (µM)
Answer with a number only, understood to be in µM.

-- ask Which CC50 is listed for `CCNc1cc2[s+]c3cc(NCC)c(C)cc3nc2cc1C.F[P-](F)(F)(F)(F)F.F[P-](F)(F)(F)(F)F.F[P-](F)(F)(F)(F)F.F[P-](F)(F)(F)(F)F.N#[O+].[Ru+2].c1cnc2c(c1)ccc1cccnc12.c1cnc2c(c1)ccc1cccnc12` ?
-- reply 71.6

-- ask Which CC50 is listed for `CCNc1cc2[s+]c3cc(NCC)c(C)cc3nc2cc1C.F[P-](F)(F)(F)(F)F.F[P-](F)(F)(F)(F)F.F[P-](F)(F)(F)(F)F.F[P-](F)(F)(F)(F)F.N#[O+].[Ru+2].c1ccc(-c2ccccn2)nc1.c1ccc(-c2ccccn2)nc1` ?
-- reply 65.9

----------
What CC50 was measured for each of the following?
system: VERO cells; assay: Cytotoxicity assay (Alamar Blue, 24 h) on VERO cells; format: cell-based, African green monkey; details: 10^5 cells/well
Answer with a number only, understood to be in µM.

-- ask Report CC50 for `CCNc1cc2[s+]c3cc(NCC)c(C)cc3nc2cc1C.F[P-](F)(F)(F)(F)F.F[P-](F)(F)(F)(F)F.F[P-](F)(F)(F)(F)F.F[P-](F)(F)(F)(F)F.N#[O+].[Ru+2].c1ccc(-c2ccccn2)nc1.c1ccc(-c2ccccn2)nc1` tested on VERO cells.
-- reply 248

-- ask Report CC50 for `CCNc1cc2[s+]c3cc(NCC)c(C)cc3nc2cc1C.F[P-](F)(F)(F)(F)F.F[P-](F)(F)(F)(F)F.F[P-](F)(F)(F)(F)F.F[P-](F)(F)(F)(F)F.N#[O+].[Ru+2].c1cnc2c(c1)ccc1cccnc12.c1cnc2c(c1)ccc1cccnc12` tested on VERO cells.
-- reply 240

----------
assay: Cytotoxicity assay (Alamar Blue, 24 h) on VERO cells; assay type: cell-based, African green monkey; settings: African green monkey, VERO cells, lower concentrations (37–100 μM)
Assay endpoint: viability at 24 h

-- ask Which viability at 24 h is listed for CN(C)c1ccc2nc3ccc(=[N+](C)C)cc-3sc2c1 [MB, methylene blue, reference compound] ?
-- reply > 50%

----------
test: Cytotoxicity assay (Alamar Blue, 24 h) on murine peritoneal macrophages; format: cell-based, Swiss Webster mice; details: male, Swiss Webster, mouse, murine peritoneal macrophages (MPMs, primary cells), 3 × 10^5 cells/well
What CC50 at 24 h was measured for each of the following?
Dear colleague, please send the value followed by its unit.

-- ask Which CC50 at 24 h is listed for CCCCCCCCCCCCCCCCOP(=O)([O-])OCC[N+](C)(C)C [Miltefosine, miltefosine, reference compound] ?
-- reply 103 µM

-- ask Which CC50 at 24 h is listed for CCNc1cc2[s+]c3cc(NCC)c(C)cc3nc2cc1C [NMB, new methylene blue] ?
-- reply 31.3 µM

-- ask Which CC50 at 24 h is listed for CN(C)c1ccc2nc3ccc(=[N+](C)C)cc-3sc2c1 [MB, methylene blue, reference compound] ?
-- reply 36 µM

----------
assay: Cytotoxicity assay (Alamar Blue, 24 h) on VERO cells; assay type: cell-based, African green monkey; conditions: African green monkey, VERO cells, 10^5 cells/well
What CC50 at 24 h was measured for each of the following?
Answer with a number only, understood to be in µM.

-- ask Which CC50 at 24 h is listed for `CCNc1cc2[s+]c3cc(NCC)c(C)cc3nc2cc1C` ?
-- reply 44.7

-- ask Which CC50 at 24 h is listed for CCCCCCCCCCCCCCCCOP(=O)([O-])OCC[N+](C)(C)C [Miltefosine, miltefosine, reference compound] ?
-- reply 168

-- ask Which CC50 at 24 h is listed for CN(C)c1ccc2nc3ccc(=[N+](C)C)cc-3sc2c1 [MB, methylene blue, reference compound] ?
-- reply 141
